# reported inhibition; entries follow
targetUnderTest: Ephrin type-B receptor 2 (Homo sapiens);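 note: reported as mean inhibition of EPHB2, from the GSK PKIS dataset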
conditionLabel: at 0.1 µM

molecule	inhibition, %
Fc1cccc(COc2ccc(Nc3ncnc4sc(-c5cccs5)cc34)cc2Cl)c1	5.23
Nc1nc(-c2ccc3c(c2)C(=Cc2cc(Br)c(O)c(Br)c2)C(=O)N3)cs1	-3.26
Cc1cc(O)cc(C)c1/C=C/c1cncc(-c2nn[nH]n2)c1	15.1
NS(=O)(=O)c1cccc(-c2ccc3c(NC(=O)C4CC4)n[nH]c3c2)c1	-1.84
CCn1c(-c2nonc2N)nc2cncc(C(=O)N3CCNCC3)c21	10.1
Nc1ncnc2occ(-c3ccc(NC(=O)Nc4cc(C(F)(F)F)cc(C(F)(F)F)c4)cc3)c12	22
O=C(Nc1n[nH]c2nc(-c3ccco3)c(Br)cc12)C1CC1	7.31
NC(=O)c1ccc(-c2nc(-c3ccccn3)c(-c3ccc4c(c3)OCO4)[nH]2)cc1	6.11
CCn1c(-c2nonc2N)nc2c(C#CC(C)(C)O)nc(OC[C@@H](N)c3ccccc3)cc21	5
Cc1ccc(C(=O)NC2CCCCC2)cc1-c1ccc(C(=O)NCC2CC2)cc1	6.79
CC1=C(C(=O)Nc2ccc3[nH]ncc3c2)C(c2ccc3ccccc3c2)CC(=O)N1 (stereo not given)	7.74
CC(=O)Nc1cccc(C#Cc2cncnc2Nc2ccc(OCc3cccc(F)c3)c(Cl)c2)n1	-1.46
CC1=C(C(=O)Nc2ccc3[nH]ncc3c2)C(c2ccc(Cl)c(Cl)c2)CC(=O)N1 (stereo not given)	7.7
COc1ccc(-c2ccncc2)cc1C(N)=O	5.39
CS(=O)(=O)CCNCc1ccc(-c2ccc3ncnc(Nc4ccc(OCc5cccc(F)c5)c(C(F)(F)F)c4)c3c2)o1	4.21
NCc1ccc(-c2nc(-c3ccc(Cl)c(O)c3)c(-c3ccncc3)[nH]2)cc1	-0.39
[O-][S+]1CCN(Cc2ccc(-c3ccc4ncnc(Nc5ccc(OCc6ccccc6)c(F)c5)c4c3)o2)CC1	4.14
COc1cc(C=NNc2ncnc3c2cnn3-c2ccccc2)ccc1O	9.57
CCn1c(-c2nonc2N)nc2cncc(C(=O)N3CC[C@H](N)C3)c21	5.01
COc1cc2ncn(-c3cc(OCc4ccccc4Cl)c(C(N)=O)s3)c2cc1OC	2

Value source: ChEMBL document CHEMBL1961873
